- experimental_protocol: Phase 1 Stage 1 clinical pharmacokinetics of SC ZA co-administered with rHuPH20
- Assay type: in vivo, human
- condition_context: human, serum, sc, serum; ZA 0.5 mg SC infusion + 24000 Units rHuPH20; 1 h post infusion; individual subjects; read-out: Zoledronic Acid Concentration

[
  {
    "molecule": "O=P(O)(O)C(O)(Cn1ccnc1)P(=O)(O)O [ZA]",
    "concentration at 1 h": "14.1 ng/mL"
  }
]

---

- experimental_protocol: Phase 1 Stage 1 clinical pharmacokinetics of SC ZA co-administered with rHuPH20
- Type: in vivo, human
- condition_context: human, serum, sc, serum; ZA 0.5 mg SC infusion + 24000 Units rHuPH20; 10 min post infusion; n=3; read-out: Median Conc.

[
  {
    "compound": "O=P(O)(O)C(O)(Cn1ccnc1)P(=O)(O)O",
    "concentration at 10 min (ng/mL)": 15
  }
]

---

- experimental_protocol: Phase 1 Stage 1 clinical pharmacokinetics of SC ZA co-administered with rHuPH20
- Format: in vivo, human
- condition_context: human, serum, sc, serum; ZA 5 mg SC infusion + 24000 Units rHuPH20; 8 h post infusion; n=3; read-out: Median Conc.

[
  {
    "compound": "O=P(O)(O)C(O)(Cn1ccnc1)P(=O)(O)O",
    "concentration at 8 h / ng/mL": 11
  }
]

---

- experimental_protocol: Phase 1 Stage 1 clinical pharmacokinetics of SC ZA co-administered with rHuPH20
- Assay type: in vivo, human
- condition_context: human, serum, sc, ZA 0.25 mg SC + 24000 U rHuPH20; mean, n=3

[
  {
    "compound": "O=P(O)(O)C(O)(Cn1ccnc1)P(=O)(O)O",
    "CL/F (mL/min/kg)": 2
  }
]

---

- experimental_protocol: Phase 1 Stage 1 clinical pharmacokinetics of SC ZA co-administered with rHuPH20
- Format: in vivo, human
- condition_context: human, serum, sc, 0.0717 mg/kg, AUC (0-12 h), Subj 67; ZA 0.0717 mg/kg SC; inf […]; PH20 2880 U

[
  {
    "compound": "O=P(O)(O)C(O)(Cn1ccnc1)P(=O)(O)O",
    "AUC(0-t) (ng·h/mL)": 565
  }
]

---

- experimental_protocol: Phase 1 Stage 1 clinical pharmacokinetics of SC ZA co-administered with rHuPH20
- Assay type: in vivo, human
- condition_context: human, serum, sc, 0.082 mg/kg, AUC (0-12 h), Subj 63; ZA 0.0820 mg/kg SC; inf […]; PH20 6000 U

[
  {
    "molecule": "O=P(O)(O)C(O)(Cn1ccnc1)P(=O)(O)O [ZA]",
    "AUC(0-t)": "497 ng·h/mL"
  }
]

---

- experimental_protocol: Pharmacokinetics of ZA in pig serum after IV or SC infusion with or without rHuPH20 (LC-MS-MS, non-compartmental analysis)
- Type: in vivo
- condition_context: female, Yorkshire, pig, serum, sc, […], pig 59; SC ZA […], 100 mL over 16 min, no rHuPH20; read-out: Tmax
- Description: A pharmacokinetic study of zoledronic acid (ZA) co-administered with rHuPH20 in female Yorkshire swines was conducted. […] Serum concentration of ZA was determined using a qualified LC-MS-MS assay after derivatization with diazomethane (Zhu, L S et al. (2006) Rapid Commun. Mass Spectrom. 20: 3421-3426; “Qualification Data of An LC-MS/MS Method for the Determination of Zoledronate in Porcine Serum”, MDS Pharma Services Study No. AA43671-01, Report Date 14 Sep. 2007). […]

[
  {
    "molecule": "O=P(O)(O)C(O)(Cn1ccnc1)P(=O)(O)O [ZA]",
    "Tmax (min)": 20
  }
]

---

- experimental_protocol: Pharmacokinetics of ZA in pig serum after IV or SC infusion with or without rHuPH20 (LC-MS-MS, non-compartmental analysis)
- Format: in vivo
- condition_context: female, Yorkshire, pig, serum, sc, […], pig 60; SC ZA […], 100 mL over 16 min, no rHuPH20; read-out: CL/F (converted)
- Description: A pharmacokinetic study of zoledronic acid (ZA) co-administered with rHuPH20 in female Yorkshire swines was conducted. […] Serum concentration of ZA was determined using a qualified LC-MS-MS assay after derivatization with diazomethane (Zhu, L S et al. (2006) Rapid Commun. Mass Spectrom. 20: 3421-3426; “Qualification Data of An LC-MS/MS Method for the Determination of Zoledronate in Porcine Serum”, MDS Pharma Services Study No. AA43671-01, Report Date 14 Sep. 2007). […]

[
  {
    "compound": "O=P(O)(O)C(O)(Cn1ccnc1)P(=O)(O)O",
    "CL/F": "6.97 mL/min/kg"
  }
]

---

- experimental_protocol: Phase 1 Stage 1 clinical pharmacokinetics of SC ZA co-administered with rHuPH20
- Format: in vivo, human
- condition_context: human, serum, sc, […], AUC (0-24 h), Subj 16; ZA […] SC; inf 0.553 hr; PH20 23904 U

[
  {
    "compound": "O=P(O)(O)C(O)(Cn1ccnc1)P(=O)(O)O",
    "AUC(0-t)": "62.9 ng·h/mL"
  }
]

---

- experimental_protocol: Phase 1 Stage 1 clinical pharmacokinetics of SC ZA co-administered with rHuPH20
- Type: in vivo, human
- condition_context: human, serum, sc, serum; ZA 0.25 mg SC infusion + 24000 Units rHuPH20; 6 h post infusion; n=3; read-out: Mean Conc.

[
  {
    "compound": "O=P(O)(O)C(O)(Cn1ccnc1)P(=O)(O)O",
    "concentration at 6 h": "1.52 ng/mL"
  }
]

---

- experimental_protocol: Phase 1 Stage 1 clinical pharmacokinetics of SC ZA co-administered with rHuPH20
- Format: in vivo, human
- condition_context: human, serum, sc, […], Subj 31; ZA […] SC; inf 0.554 hr; PH20 23952 U; read-out: AUC (0-inf)
metric_name: AUC(0-inf)

[
  {
    "compound": "O=P(O)(O)C(O)(Cn1ccnc1)P(=O)(O)O",
    "experimental_value": "239 ng·h/mL"
  }
]

---

- experimental_protocol: Pharmacokinetics of ZA in pig serum after IV or SC infusion with or without rHuPH20 (LC-MS-MS, non-compartmental analysis)
- Format: in vivo
- condition_context: female, Yorkshire, pig, serum, sc, […], pig 69; SC ZA […], 25 mL over 4 min, no rHuPH20; read-out: SC Bioavailability (0-8 h)

[
  {
    "compound": "O=P(O)(O)C(O)(Cn1ccnc1)P(=O)(O)O",
    "bioavailability, %": 78.8
  }
]

---

- experimental_protocol: Phase 1 Stage 1 clinical pharmacokinetics of SC ZA co-administered with rHuPH20
- Type: in vivo, human
- condition_context: human, serum, sc, serum; ZA 1 mg SC infusion + 24000 Units rHuPH20; 2 h post infusion; n=3; read-out: Mean Conc.

[
  {
    "compound": "O=P(O)(O)C(O)(Cn1ccnc1)P(=O)(O)O",
    "output_unit": "ng/mL",
    "concentration at 2 h": 19.6
  }
]

---

- experimental_protocol: Phase 1 Stage 1 clinical pharmacokinetics of SC ZA co-administered with rHuPH20
- Format: in vivo, human
- condition_context: human, serum, sc, ZA 2 mg SC + 24000 U rHuPH20; median, n=3

[
  {
    "compound": "O=P(O)(O)C(O)(Cn1ccnc1)P(=O)(O)O [ZA]",
    "output_unit": "ng/mL",
    "Cmax": 58.7
  }
]

---

- experimental_protocol: Pharmacokinetics of ZA in pig serum after IV or SC infusion with or without rHuPH20 (LC-MS-MS, non-compartmental analysis)
- Type: in vivo
- condition_context: female, Yorkshire, pig, serum, sc, […], pig 62; SC ZA […], 50 mL over 8 min, no rHuPH20; read-out: Vz/F

[
  {
    "compound": "O=P(O)(O)C(O)(Cn1ccnc1)P(=O)(O)O",
    "Vd/F / L/kg": 0.852
  }
]

---

- experimental_protocol: Phase 1 Stage 1 clinical pharmacokinetics of SC ZA co-administered with rHuPH20
- Assay type: in vivo, human
- condition_context: human, serum, sc, ZA 1 mg SC + 24000 U rHuPH20; mean, n=3; read-out: Vz/F

[
  {
    "compound": "O=P(O)(O)C(O)(Cn1ccnc1)P(=O)(O)O [ZA]",
    "Vd/F [L/kg]": 2.13
  }
]

---

- experimental_protocol: Pharmacokinetics of ZA in pig serum after IV or SC infusion with or without rHuPH20 (LC-MS-MS, non-compartmental analysis)
- Type: in vivo
- condition_context: female, Yorkshire, pig, serum, sc, […], pig 62; SC ZA […], 50 mL over 8 min, no rHuPH20; read-out: CL/F (converted)

[
  {
    "compound": "O=P(O)(O)C(O)(Cn1ccnc1)P(=O)(O)O",
    "CL/F [mL/min/kg]": 10.2
  }
]
